# measurement_description: Pharmacokinetic characterization including BBB permeability
# Format: in vivo, CD-1 WT mice
# condition_info: male, CD-1, mouse, plasma; IV - 5 mg/kg, mice
# Procedure: Pharmacokinetic characterization including BBB permeability of ARN2966 was performed in three months old, male CD-1 WT mice, which received a single oral (po; 25 mg/kg) or intravenous (iv; 5 mg/kg) dose of ARN2966 and were sacrificed 0.25, 0.5, 1, 2, 8, and 24 hr later (n=3 per time point). Plasma and brain concentration of ARN2966 were determined using liquid chromatography-mass spectrometry (LC/MS) (Table I). […] 64.2% of its orally administered dose was absorbed from the alimentary tract. […]
attribute_measured: AUC(0-inf) (ng·h/mL)
Unit ng·h/mL implied. Number only.

Fill blank: measured AUC(0-inf) of the compound Oc1ccccc1NCc1ccccn1 [ARN2966, 2-[(pyridine-2-ylmethyl)-amino]-phenol] is ____. 1230

###

# measurement_description: Pharmacokinetic characterization including BBB permeability
# Format: in vivo, CD-1 WT mice
# condition_info: male, CD-1, mouse, plasma; IV - 5 mg/kg, mice; read-out: Plasma Tmax
attribute_measured: Tmax (min)
Unit min implied. Number only.

Fill blank: measured Tmax of the compound Oc1ccccc1NCc1ccccn1 [ARN2966, 2-[(pyridine-2-ylmethyl)-amino]-phenol] is ____. 15

###

# measurement_description: Pharmacokinetic characterization including BBB permeability
# Format: in vivo, CD-1 WT mice
# condition_info: male, CD-1, mouse, brain; IV - 5 mg/kg, mice; read-out: Brain Tmax
attribute_measured: Tmax (min)
Unit min implied. Number only.

Fill blank: measured Tmax of the compound Oc1ccccc1NCc1ccccn1 [ARN2966, 2-[(pyridine-2-ylmethyl)-amino]-phenol] is ____. 15

###

# measurement_description: Pharmacokinetic characterization including BBB permeability
# Type: in vivo, CD-1 WT mice
# condition_info: male, CD-1, mouse, plasma; PO - 25 mg/kg, mice, mean ±SD
# Experimental: Pharmacokinetic characterization including BBB permeability of ARN2966 was performed in three months old, male CD-1 WT mice, which received a single oral (po; 25 mg/kg) or intravenous (iv; 5 mg/kg) dose of ARN2966 and were sacrificed 0.25, 0.5, 1, 2, 8, and 24 hr later (n=3 per time point). Plasma and brain concentration of ARN2966 were determined using liquid chromatography-mass spectrometry (LC/MS) (Table I). […] 64.2% of its orally administered dose was absorbed from the alimentary tract. […]
attribute_measured: Cmax (ng/mL)
Unit ng/mL implied. Number only.

Fill blank: measured Cmax of the compound Oc1ccccc1NCc1ccccn1 [ARN2966, 2-[(pyridine-2-ylmethyl)-amino]-phenol] is ____. 2660

###

# measurement_description: Pharmacokinetic characterization including BBB permeability
# Format: in vivo, CD-1 WT mice
# condition_info: male, CD-1, mouse, plasma; IV - 5 mg/kg, mice
attribute_measured: clearance (mL/min/kg)
Unit mL/min/kg implied. Number only.

Fill blank: measured clearance of the compound Oc1ccccc1NCc1ccccn1 [ARN2966, 2-[(pyridine-2-ylmethyl)-amino]-phenol] is ____. 67.8

###

# measurement_description: Pharmacokinetic characterization including BBB permeability
# Assay type: in vivo, CD-1 WT mice
# condition_info: male, CD-1, mouse, plasma; IV - 5 mg/kg, mice; read-out: Vz
attribute_measured: Vd (L/kg)
Unit L/kg implied. Number only.

Fill blank: measured Vd of the compound Oc1ccccc1NCc1ccccn1 [ARN2966, 2-[(pyridine-2-ylmethyl)-amino]-phenol] is ____. 36

###

# measurement_description: Pharmacokinetic characterization including BBB permeability
# Type: in vivo, CD-1 WT mice
# condition_info: male, CD-1, mouse, plasma; PO - 25 mg/kg, mice
attribute_measured: AUC(0-inf) (ng·h/mL)
Unit ng·h/mL implied. Number only.

Fill blank: measured AUC(0-inf) of the compound Oc1ccccc1NCc1ccccn1 [ARN2966, 2-[(pyridine-2-ylmethyl)-amino]-phenol] is ____. 3950

###

# assayed_target: Aβ40 (Homo sapiens, UniProt P05067)
# Sequence (P05067 672-711): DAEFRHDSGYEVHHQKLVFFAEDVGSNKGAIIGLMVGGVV
# measurement_description: Thioflavin-T fibrillization assay
# condition_info: 100 μM HFIP monomerized synthetic Aβ40, 0.1M Tris pH 7.0, 37° C., 8 days, 0-100 μM compound; read-out: EC50 of fibril reduction
attribute_measured: EC50 (µM)
Unit µM implied. Number only.

- Oc1ccccc1N=Cc1ccccn1: 16

// next item, EC50 requested
Fill blank: measured EC50 of the molecule COc1ccc(/C=N/Nc2nc3ccccc3n2C)cc1O is ____. 44

###

# measurement_description: Pharmacokinetic characterization including BBB permeability
# Type: in vivo, CD-1 WT mice
# condition_info: male, CD-1, mouse, brain; PO - 25 mg/kg, mice; read-out: Brain Tmax
attribute_measured: Tmax (min)
Unit min implied. Number only.

Fill blank: measured Tmax of the molecule Oc1ccccc1NCc1ccccn1 [ARN2966, 2-[(pyridine-2-ylmethyl)-amino]-phenol] is ____. 30
